Readings of mass density for the listed molecules
- CONDITION: 318.15 K; 101.33 kPa; Liquid; Vibrating tube method
// note: answer is a bare numeric in kg/m3

Some molecules with recorded mass density:
CCCCCCCC[P+](CC)(CC)CC.O=S(=O)([N-]S(=O)(=O)C(F)(F)F)C(F)(F)F [triethyloctylphosphonium bis(trifluoromethylsulfonyl)imide]
1228.2
CCCC[S+]1CCCC1.O=S(=O)([N-]S(=O)(=O)C(F)(F)F)C(F)(F)F
1436.5
CCCCCCn1cc[n+](C)c1.O=[N+]([O-])c1cn[n-]c1 [1-hexyl-3-methylimidazolium 4-nitropyrazolide]
1110.2
CCCCCCSC(N(C)C)=[N+](C)C.O=S(=O)([N-]S(=O)(=O)C(F)(F)F)C(F)(F)F
1321.5
CCC[n+]1ccn(C)c1C.O=[N+]([O-])c1cn[n-]c1 [1,2-dimethyl-3-propylimidazolium 4-nitropyrazolide]
1168.9

QUERY: # mass density lookup, item CCCCCCCC[P+](CC)(CC)CC.O=[N+]([O-])c1cn[n-]c1 [triethyloctylphosphonium 4-nitropyrazolide]
RESULT: 1019

QUERY: Check CCCCCCCCCCCCCC[P+](CCCCCC)(CCCCCC)CCCCCC.O=S(=O)([N-]S(=O)(=O)C(F)(F)F)C(F)(F)F too.
RESULT: 1050.8

###

- CONDITION: 288.15 K; 101.33 kPa; Liquid; Cone and plate viscometry
± gives the expanded uncertainty stated by the source.
# viscosity values compiled below

CC[P+](CC)(CC)COCCOC.O=S(=O)([N-]S(=O)(=O)C(F)(F)F)C(F)(F)F
51 ± 3 mPa·s
CCC=Cn1cc[n+](C)c1C.O=[N+]([O-])c1cn[n-]c1 [1-but-1-enyl-2,3-dimethylimidazolium 4-nitropyrazolide]
1720 ± 170 mPa·s
CCCCCCn1cc[n+](C)c1C.O=[N+]([O-])c1cn[n-]c1 [1-hexyl-2,3-dimethylimidazolium 4-nitropyrazolide]
3490 ± 370 mPa·s

Now turn to the next molecule.
QUERY: May I ask what viscosity has been recorded for CCCC[S+]1CCCC1.O=S(=O)([N-]S(=O)(=O)C(F)(F)F)C(F)(F)F ?
RESULT: 153 ± 11 mPa·s

###

- CONDITION: 303.15 K; 101.33 kPa; Liquid; Cone and plate viscometry
MEASUREMENT_KIND: viscosity (mPa·s)
Your answer is read as mPa·s, so omit the unit and give the number.

CCCCCCCCCCCCCC[P+](CCCCCC)(CCCCCC)CCCCCC.Cc1ncc([N+](=O)[O-])[n-]1 [trihexyl(tetradecyl)phosphonium 2-methyl-5-nitroimidazolide]
786
CC[P+](CC)(CC)COCCOC.Cc1ncc([N+](=O)[O-])[n-]1
106
CCCCCCSC(N(C)C)=[N+](C)C.O=S(=O)([N-]S(=O)(=O)C(F)(F)F)C(F)(F)F
68
CCC=Cn1cc[n+](C)c1C.O=[N+]([O-])c1cn[n-]c1 [1-but-1-enyl-2,3-dimethylimidazolium 4-nitropyrazolide]
380

QUERY: Entry CCCCCCC[P+](CC)(CC)CC.O=[N+]([O-])c1cn[n-]c1 [triethylheptylphosphonium 4-nitropyrazolide] : reported viscosity = ?
RESULT: 165

###

- CONDITION: 308.15 K; 101.33 kPa; Liquid; Vibrating tube method
Each item that follows carries a reported mass density.
Give the quantity in kg/m3, number only.

CCCCCCn1cc[n+](C)c1.N#Cc1ccc[n-]1 [1-hexyl-3-methylimidazolium 2-cyanopyrrolide]
1015.8
CC(=O)[O-].CCCCCCn1cc[n+](C)c1 [3-hexyl-1-methylimidazolium acetate]
1010.4

Kindly consider the entry below.
QUERY: What does the record list as mass density for CCCCCCCC[P+](CC)(CC)CC.Cc1ncc([N+](=O)[O-])[n-]1 [triethyloctylphosphonium 2-methyl-5-nitroimidazolide] ?
RESULT: 1022.7
